# Test system: DeltatarO mutant
# protocol.details: S. aureus survival, RN4220 and DeltatarO strains – OD600, teichoic acid synthesis inhibitors, primary screen (AID 463173)
# assay.context: S. aureus RN4220 wild type/DeltatarO growth, OD600, 18 h, stronger effect = lower value, screened at 18.75 µg/mL (by protocol)
The campaign covered roughly 52,000 compounds. About 4,300 (8.3%) were called active. The sample as a whole holds a higher share of actives than the screen did.
property.measured: survival (%)

compound: CCOC(=O)c1c(NC(=O)CCCOc2ccc(Cl)cc2)sc2c1CCC2
system.tested: DeltatarO mutant
property.measured: survival
unit.abbrev: %
reading: 17

compound: CCOc1ccccc1CNS(=O)(=O)c1ccc(-c2coc(C)n2)cc1
system.tested: DeltatarO mutant
property.measured: survival
unit.abbrev: %
reading: 94

compound: CC(C)CC(C(=O)NCc1ccc(F)cc1)N1Cc2ccccc2C1=O (stereo unspecified)
system.tested: DeltatarO mutant
property.measured: survival
unit.abbrev: %
reading: 88

compound: COc1ccc(CNC(=O)c2cc3ccccn3n2)c(OC)c1
system.tested: DeltatarO mutant
property.measured: survival
unit.abbrev: %
reading: 71

compound: CCn1c(C(=O)N2CCC(C(=O)N3CCN(c4ccc(OC)cc4)CC3)CC2)cc2sccc21
system.tested: DeltatarO mutant
property.measured: survival
unit.abbrev: %
reading: 49

compound: CCN(CC)CCn1c(=N)n(CC(O)COc2ccccc2C)c2ccccc21 (stereo unspecified)
system.tested: DeltatarO mutant
property.measured: survival
unit.abbrev: %
reading: 80

compound: CCOC(=O)c1c(NC(=O)COc2ccc(Cl)cc2C)sc2c1CCCCC2
system.tested: DeltatarO mutant
property.measured: survival
unit.abbrev: %
reading: 75

compound: CCC1=Nc2cc(C(=O)N3CCC(C)CC3)ccc2Sc2ccc(C)cc21
system.tested: DeltatarO mutant
property.measured: survival
unit.abbrev: %
reading: -4

compound: Cc1nn(C(C)C(=O)Nc2cccc(F)c2)c(=O)c2c1sc1ccccc12 (stereo unspecified)
system.tested: DeltatarO mutant
property.measured: survival
unit.abbrev: %
reading: 108

compound: CCn1c(C(=O)N2CCC(C(=O)NCCc3ccc(C)cc3)CC2)cc2sccc21
system.tested: DeltatarO mutant
property.measured: survival
unit.abbrev: %
reading: 58

compound: O=C(O)CCC(=O)Nc1ccncc1
system.tested: DeltatarO mutant
property.measured: survival
unit.abbrev: %
reading: 92

compound: CCCC1=Nc2cc(C(=O)N3CCC(C)CC3)ccc2Sc2ccc(C)cc21
system.tested: DeltatarO mutant
property.measured: survival
unit.abbrev: %
reading: 97

compound: COc1ccc2c(C)c(CCC(=O)NCCc3ccc(OC)c(OC)c3)c(=O)oc2c1
system.tested: DeltatarO mutant
property.measured: survival
unit.abbrev: %
reading: 88

compound: CCS(=O)(=O)c1ncc(N(Cc2ccccc2)Cc2ccco2)c(C(=O)Nc2ccc(C)c(C)c2)n1
system.tested: DeltatarO mutant
property.measured: survival
unit.abbrev: %
reading: 52

compound: CC(C)CCNC(=O)C1CCN(C(=O)c2cc3sccc3n2Cc2ccc(Cl)cc2)CC1
system.tested: DeltatarO mutant
property.measured: survival
unit.abbrev: %
reading: 40

compound: COc1ccc(CNC(=O)C(OC(=O)c2ccc(Cl)nc2)c2ccccn2)cc1 (stereo unspecified)
system.tested: DeltatarO mutant
property.measured: survival
unit.abbrev: %
reading: 104

compound: COc1ccc(N2CCN(C(=O)c3cc4sccc4n3Cc3ccccc3)CC2)cc1
system.tested: DeltatarO mutant
property.measured: survival
unit.abbrev: %
reading: 92

compound: CC1=Nc2cc(C(=O)N3CCCCC3)ccc2Sc2ccc(C)cc21
system.tested: DeltatarO mutant
property.measured: survival
unit.abbrev: %
reading: 48

compound: Cc1cccc(NS(=O)(=O)c2ccc3c(c2)CCN3C(=O)C2CCC2)c1
system.tested: DeltatarO mutant
property.measured: survival
unit.abbrev: %
reading: 69

compound: COc1ccccc1NC(=O)Cn1nnc(C(=O)NCc2ccc3c(c2)OCO3)c1N
system.tested: DeltatarO mutant
property.measured: survival
unit.abbrev: %
reading: 103

compound: CCS(=O)(=O)c1ncc(N(Cc2ccco2)Cc2sccc2C)c(C(=O)Nc2ccc(C)cc2C)n1
system.tested: DeltatarO mutant
property.measured: survival
unit.abbrev: %
reading: 53

compound: CCOC(=O)c1c(NC(=O)CCCOc2ccc(C(C)(C)C)cc2)sc2c1CCCC2
system.tested: DeltatarO mutant
property.measured: survival
unit.abbrev: %
reading: 14

compound: Cc1cc(C)n(C(C)CC(=O)NCc2ccc(Cl)cc2)n1 (stereo unspecified)
system.tested: DeltatarO mutant
property.measured: survival
unit.abbrev: %
reading: 69

compound: CCS(=O)(=O)c1ncc(N(Cc2ccc(F)cc2)Cc2ccco2)c(C(=O)Nc2cc(C)ccc2C)n1
system.tested: DeltatarO mutant
property.measured: survival
unit.abbrev: %
reading: 58

compound: CCOC(=O)c1c(NC(=O)CCCOc2ccc(C(C)(C)C)cc2)sc2c1CCC2
system.tested: DeltatarO mutant
property.measured: survival
unit.abbrev: %
reading: 9

compound: COc1cccc(-c2nnc3n(Cc4ccc(F)cc4)c(=O)c4ccccc4n23)c1
system.tested: DeltatarO mutant
property.measured: survival
unit.abbrev: %
reading: 84

compound: Cc1ccc(-n2nc(C(=O)NC(C)C)c(=O)n(C)c2=O)cc1
system.tested: DeltatarO mutant
property.measured: survival
unit.abbrev: %
reading: 78

compound: CCc1ccccc1NC(=O)c1ccc2c(c1)N(Cc1cc(C)ccc1C)C(=O)c1ccccc1S2(=O)=O
system.tested: DeltatarO mutant
property.measured: survival
unit.abbrev: %
reading: 84

compound: CCOc1ccc(CCNC(=O)CCN2N=C(c3ccc(OC)cc3)CCC2=O)cc1OCC
system.tested: DeltatarO mutant
property.measured: survival
unit.abbrev: %
reading: 81

compound: CCOC(=O)C1CCN(C(=O)c2ccc3c(c2)N=C(CC)c2cc(C)ccc2S3)CC1
system.tested: DeltatarO mutant
property.measured: survival
unit.abbrev: %
reading: 36

compound: Cc1cn2c(=O)cc(COC(=O)COc3ccccc3C)nc2s1
system.tested: DeltatarO mutant
property.measured: survival
unit.abbrev: %
reading: 76

compound: CC1=Nc2cc(C(=O)N3CCC(C)CC3)ccc2Sc2ccc(Cl)cc21
system.tested: DeltatarO mutant
property.measured: survival
unit.abbrev: %
reading: 90

compound: Cc1ccsc1CN(Cc1ccco1)c1cnc(S(C)(=O)=O)nc1C(=O)Nc1ccc(Cl)cc1
system.tested: DeltatarO mutant
property.measured: survival
unit.abbrev: %
reading: 40

compound: CCc1ccccc1NC(=O)Cn1c(=O)n(C(C)C)c(=O)c2oc3ccccc3c21
system.tested: DeltatarO mutant
property.measured: survival
unit.abbrev: %
reading: 66

compound: CCOC(=O)c1c(NC(=O)COc2ccc(C(C)(C)C)cc2)sc2c1CCCC2
system.tested: DeltatarO mutant
property.measured: survival
unit.abbrev: %
reading: 75

compound: COc1ccccc1N1CCN(C(=O)c2cc3c(=O)oc4ccccc4c3s2)CC1
system.tested: DeltatarO mutant
property.measured: survival
unit.abbrev: %
reading: 169

compound: CCOc1ccc(-n2c(CC)nc3c(cnn3-c3ccc(Cl)cc3)c2=O)cc1
system.tested: DeltatarO mutant
property.measured: survival
unit.abbrev: %
reading: 46

compound: CCn1c(C(=O)N2CCC(C(=O)N3CCN(c4cc(C)ccc4C)CC3)CC2)cc2sccc21
system.tested: DeltatarO mutant
property.measured: survival
unit.abbrev: %
reading: 51

compound: COCCCNC(=O)C1CCN(C(=O)c2cc3sccc3n2Cc2ccc(Cl)cc2)CC1
system.tested: DeltatarO mutant
property.measured: survival
unit.abbrev: %
reading: 59

compound: Cc1onc(-c2ccccc2Cl)c1C(=O)Oc1ccccc1F
system.tested: DeltatarO mutant
property.measured: survival
unit.abbrev: %
reading: 76

compound: Cc1cccc(-c2nc3c(cnn3-c3ccccc3)c(=O)n2-c2ccc(Cl)cc2)c1
system.tested: DeltatarO mutant
property.measured: survival
unit.abbrev: %
reading: 56

----------
# Tested on: DeltatarO mutant
# protocol.details: S. aureus survival, RN4220 and DeltatarO strains – OD600, teichoic acid synthesis inhibitors, primary screen (AID 463173)
# assay.context: S. aureus RN4220 wild type/DeltatarO growth, OD600, 18 h, screened at 18.75 µg/mL (by protocol)
Out of some 52,000 compounds screened, about 4,300 (8.3%) were called active. Cut-off read from the data, not from the text of the source: active = survival mostly below about 52% (no sharp cut-off); inactive = mostly above about 56%. The sample as a whole holds a higher share of actives than the screen did.
Classes used: TRUE (active), FALSE (inactive)

compound: O=C(CSc1ncn(-c2ccccc2)n1)NC1CCCCC1
class.name: FALSE

compound: N#Cc1c2c(c(N3CCOCC3)[nH]c1=S)CCCC2
class.name: FALSE

compound: CCCCNC(=O)C1(NC(=O)Nc2ccccc2)CCCCC1
class.name: FALSE

compound: Cn1cc(S(=O)(=O)N2CCCC2)cc1C(=O)Nc1ccc(F)cc1F
class.name: FALSE

compound: Nc1nonc1C(=O)NCCNCc1cccc(Cl)c1Cl
class.name: FALSE

compound: COc1ccc(-c2noc(CCC(=O)Nc3ccccc3Cl)n2)cc1OC
class.name: FALSE

compound: CCOc1ccc(CCNC(=O)CCCc2nnc3n(CCCOC)c(=O)c4sccc4n23)cc1
class.name: FALSE

compound: Cc1ccc(NC(=O)CCc2nc(-c3ccccc3F)no2)c(C)c1
class.name: FALSE

compound: O=[N+]([O-])c1ccc(O)c(-c2ccnc3cc(-c4ccccc4)nn23)c1
class.name: TRUE

compound: Cc1ccc(Cl)cc1N1CCN(C(=O)CCSCc2ccccc2F)CC1
class.name: FALSE

compound: O=c1c2sc3ccccc3c2n(Cc2ccccc2Cl)c(=O)n1Cc1ccccc1
class.name: FALSE

compound: CCCOc1ccc(CNC(=O)C2CCN(C(=O)c3sccc3-n3cccc3)CC2)cc1
class.name: FALSE

compound: O=C1CCCc2cc(S(=O)(=O)N3CCCC(C(=O)Nc4ccc(F)c(Cl)c4)C3)ccc2N1 (configuration not stated)
class.name: FALSE

compound: O=C(Nc1ccccc1)NC1(C(=O)NCc2ccc3c(c2)OCO3)CCCCC1
class.name: TRUE

compound: CS(=O)(=O)N1CCN(S(=O)(=O)c2ccccc2)CC1
class.name: FALSE

compound: CCN(CC)c1ccc(NC(=O)C2CCN(S(=O)(=O)c3ccc4c(c3)oc(=O)n4C)CC2)c(C)c1
class.name: FALSE

compound: Cc1ccc(O)c(-c2ccnc3cc(-c4ccc(Cl)cc4)nn23)c1
class.name: FALSE

compound: COc1cccc(N2CCN(C(=O)C3CCCN(S(=O)(=O)c4ccc(Br)s4)C3)CC2)c1 (configuration not stated)
class.name: FALSE

compound: O=C(NCc1ccccc1Cl)c1ccc2oc(=O)n(Cc3ccccc3)c2c1
class.name: FALSE

compound: CC(C)N(C(=O)CSc1nnc(CSc2ncccn2)n1C)C(C)C
class.name: FALSE

compound: COc1ccc(-c2[nH]c(-c3cccc(OC)c3)nc2SCC(=O)Nc2ccc3c(c2)OCO3)cc1
class.name: FALSE

compound: CCCCCOc1ccccc1CN1C(=O)C(=O)c2cc(C)ccc21
class.name: FALSE
